measuredTarget: Thrombopoietin receptor (Homo sapiens)
Sequence (whole entry): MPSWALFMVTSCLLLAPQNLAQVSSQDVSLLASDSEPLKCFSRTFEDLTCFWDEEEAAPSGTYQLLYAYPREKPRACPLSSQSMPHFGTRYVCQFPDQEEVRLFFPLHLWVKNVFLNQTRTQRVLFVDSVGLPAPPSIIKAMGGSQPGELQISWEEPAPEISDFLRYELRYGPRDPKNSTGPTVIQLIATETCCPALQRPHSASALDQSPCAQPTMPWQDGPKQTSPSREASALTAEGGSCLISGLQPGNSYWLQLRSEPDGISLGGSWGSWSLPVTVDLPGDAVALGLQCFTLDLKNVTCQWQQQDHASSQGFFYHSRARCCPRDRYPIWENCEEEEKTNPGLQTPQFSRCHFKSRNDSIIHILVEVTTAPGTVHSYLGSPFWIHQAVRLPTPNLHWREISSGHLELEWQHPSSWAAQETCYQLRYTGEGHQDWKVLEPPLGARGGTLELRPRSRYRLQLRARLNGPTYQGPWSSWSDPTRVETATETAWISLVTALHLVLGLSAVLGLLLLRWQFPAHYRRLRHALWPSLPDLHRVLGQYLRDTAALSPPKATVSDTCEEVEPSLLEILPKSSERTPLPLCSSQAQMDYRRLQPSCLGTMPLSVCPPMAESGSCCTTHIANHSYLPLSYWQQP
assayRemarks: Agonist activity at human TPOR expressed in mouse BaF3 cells at 300 nM
measurementType: % activity vs 10 ng/ml TPO (%)

Recorded results for 4 compounds are shown here.
C/C(NNC(=S)N1CCc2cc(C(=O)O)ccc21)=C1/C(=O)N(c2ccc3c(c2)CCC3)c2ccc(F)cc21    10.6
C/C(NNC(=S)N1CCc2cc(C(=O)O)ccc21)=C1/C(=O)N(c2ccc(C)cc2)c2ccc(F)cc21    122
C/C(NNC(=S)N1CCc2cc(C(=O)O)ccc21)=C1/C(=O)N(c2ccc(C)cc2)c2ccccc21    107
C/C(NNC(=S)N1CCCc2cc(C(=O)O)ccc21)=C1/C(=O)N(c2ccc(C)cc2)c2ccccc21    101

[A] C/C(NNC(=S)N1CCc2cc(C(=O)O)ccc21)=C1/C(=O)N(c2ccc(C)c(C)c2)c2ccccc21
[B] C/C(NNC(=S)N1CCc2cc(C(=O)O)ccc21)=C1/C(=O)N(c2ccc3c(c2)CCC3)c2ccccc21
[C] C/C(NNC(=S)N1CCCc2cc(C(=O)O)ccc21)=C1/C(=O)N(c2ccc(C)c(C)c2)c2ccccc21
Rank the items in ascending order with respect to % activity vs 10 ng/ml TPO. When ranking, write the labels in the order the request describes.
C, B, A
